The measurements presented in this section are drawn from PubChem BioAssay (NCI).

tested on: SK-MEL-2 melanoma; assay: NCI tumour cell line growth inhibition, 48 h
Recorded TGI by entry
readout.kind: TGI

compound_smiles=Cn1c(=O)c(Cl)c(N=[N+]=[N-])c2ccccc21 readout_value="> 100 µM"
compound_smiles=CSc1c(C#N)c(S)[nH]c(=O)c1C#N readout_value="> 100 µM"
compound_smiles=O=c1oc2ccc3ccccc3c2cc1-c1nc2ccc([N+](=O)[O-])cc2o1 readout_value="> 100 µM"
compound_smiles=c1ccc2c(NCCCCCCNc3cccc4ccccc34)cccc2c1 readout_value="> 100 µM"
compound_smiles=Cc1ccc(N=C2C(c3ccccc3)=C(SC3=C(c4ccccc4)C(=Nc4ccc(C)cc4)c4ccccc43)c3ccccc32)cc1 readout_value="> 78.7 µM"
